TEST_METHOD_NOTES: In vitro liver microsomal stability assay
REPORTED_CONDITIONS: human liver microsomes 0.5 mg per mL, NADPH 2 mM, pH 7.4, 1 uM compound, 37° C.; relative to d0 (Example 1)
MEASURED_METRIC: Half-life % change over d0 (%)
Hi! Could you send only the number? It should be in %, unit omitted.

• [2H]C([2H])([2H])c1cccc(OCC(O)CNCCc2ccc(OC)c(OC)c2)c1 (centres unmarked) = 4.95
• [2H]C([2H])([2H])Oc1ccc(CCNCC(O)COc2cccc(C([2H])([2H])[2H])c2)cc1OC([2H])([2H])[2H] (centres unmarked) = 26.83
• [2H]C([2H])([2H])Oc1ccc(CCNCC(O)COc2cccc(C)c2)cc1OC([2H])([2H])[2H] (centres unmarked) = −1.65
• COc1ccc(CCNCC(O)COc2cccc(C)c2)cc1OC (centres unmarked) [Example 1, reference compound] = 0.00

Then there is this molecule:
Incoming: Please report the measured Half-life % change over d0 for [2H]C([2H])([2H])Oc1ccc(CCNC([2H])([2H])C([2H])(O)C([2H])([2H])Oc2cccc(C)c2)cc1OC([2H])([2H])[2H] (centres unmarked)
Outgoing: −0.84
